Where these numbers come from: paper PMC10335629

Biological target: GLP-1R (Homo sapiens)
Sequence (P43220 24-463): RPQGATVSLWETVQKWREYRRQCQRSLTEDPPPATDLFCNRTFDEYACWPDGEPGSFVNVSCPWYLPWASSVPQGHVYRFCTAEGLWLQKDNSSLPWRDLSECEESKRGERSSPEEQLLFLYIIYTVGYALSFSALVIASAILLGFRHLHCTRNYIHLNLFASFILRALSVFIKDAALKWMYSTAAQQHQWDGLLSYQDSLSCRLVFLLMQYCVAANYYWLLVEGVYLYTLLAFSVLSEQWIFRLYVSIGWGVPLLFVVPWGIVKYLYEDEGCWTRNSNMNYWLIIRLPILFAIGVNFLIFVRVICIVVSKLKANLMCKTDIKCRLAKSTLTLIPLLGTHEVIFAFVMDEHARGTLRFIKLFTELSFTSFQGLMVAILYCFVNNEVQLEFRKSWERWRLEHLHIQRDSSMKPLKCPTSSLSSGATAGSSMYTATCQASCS
Assay: GLP-1R activation: cAMP production, GloSensor HEK293 cells
Type: cell-based
No end group written: not given here.
MEASURED PROPERTY: EC50 (nM)
Answer format: numeric, nM implied, no suffix.

Ask | EC50 for HGEGTFSSELATILDALAARDFIAWLIATKITDKKKKKK-NH2 [GLE, glepaglutide] ?
Reply | 5.1
